- ASSAYED SYSTEM: Neutrophil cytosol factor 1 (Homo sapiens, UniProt P14598)
- Sequence (P14598 whole entry, the tested form may be a part): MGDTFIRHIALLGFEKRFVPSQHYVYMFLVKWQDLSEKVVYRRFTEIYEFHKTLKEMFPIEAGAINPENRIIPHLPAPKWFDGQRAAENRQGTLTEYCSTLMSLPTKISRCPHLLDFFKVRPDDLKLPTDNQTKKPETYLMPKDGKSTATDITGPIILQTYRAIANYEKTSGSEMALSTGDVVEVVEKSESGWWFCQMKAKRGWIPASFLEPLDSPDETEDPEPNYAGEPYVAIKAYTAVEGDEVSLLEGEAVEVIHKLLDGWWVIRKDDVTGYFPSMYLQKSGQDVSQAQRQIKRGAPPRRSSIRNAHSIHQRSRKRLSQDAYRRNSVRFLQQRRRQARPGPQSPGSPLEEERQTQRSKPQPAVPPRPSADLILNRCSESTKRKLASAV
- MEASUREMENT PROTOCOL: Binding affinity to human N-terminal TEV cleavable 6His tagged p47phox (151-285 residues) assessed as dissociation […] constant by Surface plasmon resonance assay
*1 amine or outer side, *2 acyl side, *3 side chain or, on linkers, in order; H or OH if unused. Where a SMILES comes first, the peptide text is derived from it. The star is where a group is joined. X1 = Clc1ccc(-c2cccc(N*)c2)cc1Cl; Suc = O=C(CCC(=O)[*:2])[*:1]; X2 = C(CC1CC1)N*
METRIC NAME: Kd

Reported Kd, molecule `N=C(N)NCC1CCN(C(=O)[C@@H]2CCCN2C(=O)[C@@H]2CCCN2C(=O)[C@@H]2CCCN2C(=O)CCC(=O)Nc2cccc(-c3cnco3)c2)CC1` : ____
5710 nM

Reported Kd, molecule N=C(N)NCCC[C@H](NC(=O)[C@@H]1CCCN1C(=O)[C@@H]1CCCN1C(=O)[C@@H]1CCCN1C(=O)CCC(=O)Nc1cccc(-c2ccc(Cl)c(Cl)c2)c1)C(=O)NCCC1CC1 ({X1-Suc}-PPPR-X2) : ____
43 nM

Reported Kd, molecule `N=C(N)NCCC[C@H](NC(=O)[C@@H]1CCCN1C(=O)[C@@H]1CCC[C@H]1[C@@H](O)[C@@H]1CCCN1C(=O)CCC(=O)Nc1cccc(-c2ccc(Cl)c(Cl)c2)c1)C(=O)NCCC1CC1` : ____
> 30000 nM

Reported Kd, molecule `N=C(N)NCCC[C@H](NC(=O)[C@@H]1CCC[C@H]1[C@@H](O)[C@@H]1CCCN1C(=O)[C@@H]1CCCN1C(=O)CCC(=O)Nc1cccc(-c2ccc(Cl)c(Cl)c2)c1)C(=O)NCCC1CC1` : ____
312 nM

Reported Kd, molecule C[C@H](NC(=O)[C@@H]1CCCN1C(=O)[C@@H]1CCCN1C(=O)[C@H](CCCNC(=N)N)NC(=O)[C@@H]1CCCN1C(=O)[C@@H]1CCCN1C(=O)[C@@H]1CCCN1C(=O)[C@H](CC(N)=O)NC(=O)[C@H](CO)NC(=O)[C@@H]1CCCN1C(=O)[C@@H]1CCCN1)C(=O)O (H-PPSNPPPRPPA-OH) : ____
214 nM

Hello, the source for this data is ChEMBL document CHEMBL5131545, in case you need it.
